Below, each entry is listed with its recorded vi/v0 at 100 µM, Cathepsin L (relative reaction rate).
TARGET OR SYSTEM: cathepsin L (Homo sapiens, UniProt P07711)
Sequence (P07711 114-333): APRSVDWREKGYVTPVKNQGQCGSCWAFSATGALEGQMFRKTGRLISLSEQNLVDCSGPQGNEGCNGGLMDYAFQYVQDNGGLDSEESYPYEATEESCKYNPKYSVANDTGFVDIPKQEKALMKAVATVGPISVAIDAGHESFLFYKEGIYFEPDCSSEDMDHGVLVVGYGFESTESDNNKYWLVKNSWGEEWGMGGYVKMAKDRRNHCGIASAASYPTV
ASSAY COMMENT: biochemical
Type: biochemical
CONDITION SET: 100 µM ligand; averages of three measurements
Output spec: single numeric token, no unit.

Example entries begin here.
Cc1ccc(=S)n(O)c1 [d] | 1.01
On1c(=S)ccc2ccccc21 [g] | 0.53
COc1cccn(O)c1=S [h] | 1.17
Cc1cccn(O)c1=S [b] | 1.05
On1ccc2ccccc2c1=S [f, N-hydroxyisoquinoline-1-thione] | 0.65

Quick check: vi/v0 at 100 µM, Cathepsin L (relative reaction rate) of Cc1ccn(O)c(=S)c1 [c] ?
1.04

Quick one: Cc1cccc(=S)n1O [e]
1.15

---

ASSAY COMMENT: in vitro
CONDITION SET: human
ASSAY READOUT: viability

Quick check: viability of On1ccccc1=S [a, 1-hydroxy-2(1H)-pyridinethione] ?
51.9 to 55.5%

---

Below, each entry is listed with its recorded vi/v0 at 100 µM, PLPro (relative reaction rate).
TARGET OR SYSTEM: SARS-CoV-2 PL^Pro (Severe acute respiratory syndrome coronavirus 2)
ASSAY COMMENT: biochemical
Format: biochemical
CONDITION SET: 100 µM ligand; averages of three measurements
Output spec: single numeric token, no unit.

On1ccc2ccccc2c1=S [f, N-hydroxyisoquinoline-1-thione] | 0.66
On1c(=S)ccc2ccccc21 [g] | 0.28
COc1cccn(O)c1=S [h] | 0.60

Now consider the entry below.
Missing value: vi/v0 at 100 µM, PLPro (relative reaction rate), SARS-CoV-2 PL^Pro (Severe acute respiratory syndrome coronavirus 2), entry Cc1ccn(O)c(=S)c1 [c] . Fill in?
0.60

---

TARGET OR SYSTEM: SARS-CoV-2 PL^Pro (Severe acute respiratory syndrome coronavirus 2, UniProt P0DTD1)
ASSAY COMMENT: biochemical
Format: biochemical
Below, each entry is listed with its recorded vi/v0 at 100 µM, PLPro (relative reaction rate).
Output spec: single numeric token, no unit.

Example entries begin here.
Cc1ccc(=S)n(O)c1 [d] | 0.77
Cc1cccn(O)c1=S [b] | 0.50
On1ccccc1=S [a, 1-hydroxy-2(1H)-pyridinethione] | 0.88

Now consider the entry below.
Missing value: vi/v0 at 100 µM, PLPro (relative reaction rate), SARS-CoV-2 PL^Pro (Severe acute respiratory syndrome coronavirus 2, UniProt P0DTD1), entry Cc1cccc(=S)n1O [e] . Fill in?
0.82

---

TARGET OR SYSTEM: cathepsin L (Homo sapiens, UniProt P07711)
ASSAY COMMENT: biochemical
Format: biochemical
pIC50: −log10 of the molar value.
ASSAY READOUT: pIC50

Quick check: pIC50 of On1ccccc1=S [a, 1-hydroxy-2(1H)-pyridinethione] ?
< 3.30

---

TARGET OR SYSTEM: SARS-CoV-2 PL^Pro (Severe acute respiratory syndrome coronavirus 2, UniProt P0DTD1)
ASSAY COMMENT: biochemical
Assay type: biochemical
ASSAY READOUT: IC50

Quick check: IC50 of On1ccccc1=S [a, 1-hydroxy-2(1H)-pyridinethione] ?
> 500 µM
